- Tested on: Streptococcus pneumoniae
- assayExplanation: Antibacterial activity against penicillin resistant Streptococcus pneumoniae A28272
- Assay type: functional
In this section, each of the compounds is paired with its reported log10 of MIC.
For clarity, the numbers are log10 values of MIC expressed in µg/mL.

Illustrative cases are given below, each with its answer.
molSmiles	assayedSystem	log10 of MIC
CO/C(C)=C1/NC(=O)[C@H]([C@@H](C)O)NC(=O)c2csc(n2)-c2cc(O)c(-c3nc(C(=O)N[C@@H](C)C(=O)NCCOCCO)cs3)nc2-c2csc(n2)[C@@H]2COC(=O)c3c4c5c(cccc5n3O)COC(=O)[C@@H](O[C@H]3C[C@](C)(O)[C@H](N(C)C)[C@H](C)O3)[C@@H](OC4)[C@H](NC(=O)c3csc1n3)c1nc(cs1)C(=O)N2	Streptococcus pneumoniae	-1.82
CO/C(C)=C1/NC(=O)[C@H]([C@@H](C)O)NC(=O)c2csc(n2)-c2cc(O)c(-c3nc(C(=O)N[C@@H](C)C(=O)NCCS(=O)(=O)O)cs3)nc2-c2csc(n2)[C@@H]2COC(=O)c3c4c5c(cccc5n3O)COC(=O)[C@@H](O[C@H]3C[C@](C)(O)[C@H](N(C)C)[C@H](C)O3)[C@@H](OC4)[C@H](NC(=O)c3csc1n3)c1nc(cs1)C(=O)N2	Streptococcus pneumoniae	-1.52
CO/C(C)=C1/NC(=O)[C@H]([C@@H](C)O)NC(=O)c2csc(n2)-c2cc(O)c(-c3nc(C(=O)N[C@@H](C)C(=O)N[C@@H]4[C@@H](O)[C@H](O)[C@@H](CO)O[C@H]4O)cs3)nc2-c2csc(n2)[C@@H]2COC(=O)c3c4c5c(cccc5n3O)COC(=O)[C@@H](O[C@H]3C[C@](C)(O)[C@H](N(C)C)[C@H](C)O3)[C@@H](OC4)[C@H](NC(=O)c3csc1n3)c1nc(cs1)C(=O)N2	Streptococcus pneumoniae	-1.22
CO/C(C)=C1/NC(=O)[C@H]([C@@H](C)O)NC(=O)c2csc(n2)-c2cc(O)c(-c3nc(C(=O)N[C@@H](C)C(=O)N4CCC(P(=O)(OC)OC)CC4)cs3)nc2-c2csc(n2)[C@@H]2COC(=O)c3c4c5c(cccc5n3O)COC(=O)[C@@H](O[C@H]3C[C@](C)(O)[C@H](N(C)C)[C@H](C)O3)[C@@H](OC4)[C@H](NC(=O)c3csc1n3)c1nc(cs1)C(=O)N2	Streptococcus pneumoniae	-1.82
C=C(NC(=O)c1csc(-c2nc3c(cc2O)-c2nc(cs2)C(=O)N[C@@H]([C@@H](C)O)C(=O)N/C(=C(\C)OC)c2nc(cs2)C(=O)N[C@@H]2c4nc(cs4)C(=O)N[C@@H](COC(=O)c4c5c6c(cccc6n4O)COC(=O)[C@@H](O[C@H]4C[C@](C)(O)[C@H](N(C)C)[C@H](C)O4)[C@H]2OC5)c2nc-3cs2)n1)C(N)=O	Streptococcus pneumoniae	-2.70

Query compound follows.
Query string: Query: log10 of MIC; subject: COCCOCCOCCOCCNC(=O)[C@H](C)NC(=O)c1csc(-c2nc3c(cc2O)-c2nc(cs2)C(=O)N[C@@H]([C@@H](C)O)C(=O)N/C(=C(\C)OC)c2nc(cs2)C(=O)N[C@@H]2c4nc(cs4)C(=O)N[C@@H](COC(=O)c4c5c6c(cccc6n4O)COC(=O)[C@@H](O[C@H]4C[C@](C)(O)[C@H](N(C)C)[C@H](C)O4)[C@H]2OC5)c2nc-3cs2)n1
Result string: -2.52

* * *

In this section, each of the compounds is paired with its reported solubility.
- assayExplanation: Solubility at pH 3.3
- Format: physicochemical
- setupConditions: buffer

molSmiles	attributeMeasured	reported
CO/C(C)=C1/NC(=O)[C@H]([C@@H](C)O)NC(=O)c2csc(n2)-c2cc(O)c(-c3nc(C(=O)N[C@@H](C)C(=O)NCCCN4CCCC4)cs3)nc2-c2csc(n2)[C@@H]2COC(=O)c3c4c5c(cccc5n3O)COC(=O)[C@@H](O[C@H]3C[C@](C)(O)[C@H](N(C)C)[C@H](C)O3)[C@@H](OC4)[C@H](NC(=O)c3csc1n3)c1nc(cs1)C(=O)N2	solubility	> 2600 µg/mL

Query compound follows.
Query string: Query: solubility; subject: CO/C(C)=C1/NC(=O)[C@H]([C@@H](C)O)NC(=O)c2csc(n2)-c2cc(O)c(-c3nc(C(=O)N[C@@H](C)C(=O)N4CCC(P(=O)(OC)OC)CC4)cs3)nc2-c2csc(n2)[C@@H]2COC(=O)c3c4c5c(cccc5n3O)COC(=O)[C@@H](O[C@H]3C[C@](C)(O)[C@H](N(C)C)[C@H](C)O3)[C@@H](OC4)[C@H](NC(=O)c3csc1n3)c1nc(cs1)C(=O)N2
Result string: > 3000 µg/mL

* * *

In this section, each of the compounds is paired with its reported MIC.
- System: Streptococcus pneumoniae
- assayExplanation: Antibacterial activity against penicillin resistant Streptococcus pneumoniae A28272
- Assay type: functional
Please state the figure in µg/mL; there is no need to write the unit.

Illustrative cases are given below, each with its answer.
compound	assayedSystem	MIC [µg/mL]
CO/C(C)=C1/NC(=O)[C@H]([C@@H](C)O)NC(=O)c2csc(n2)-c2cc(O)c(-c3nc(C(=O)N[C@@H](C)C(=O)NC[C@H](O)CO)cs3)nc2-c2csc(n2)[C@@H]2COC(=O)c3c4c5c(cccc5n3O)COC(=O)[C@@H](O[C@H]3C[C@](C)(O)[C@H](N(C)C)[C@H](C)O3)[C@@H](OC4)[C@H](NC(=O)c3csc1n3)c1nc(cs1)C(=O)N2	Streptococcus pneumoniae	0.03
CO/C(C)=C1/NC(=O)[C@H]([C@@H](C)O)NC(=O)c2csc(n2)-c2cc(O)c(-c3nc(C(=O)N[C@@H](C)C(=O)NCCc4ccncc4)cs3)nc2-c2csc(n2)[C@@H]2COC(=O)c3c4c5c(cccc5n3O)COC(=O)[C@@H](O[C@H]3C[C@](C)(O)[C@H](N(C)C)[C@H](C)O3)[C@@H](OC4)[C@H](NC(=O)c3csc1n3)c1nc(cs1)C(=O)N2	Streptococcus pneumoniae	0.015
CO/C(C)=C1/NC(=O)[C@H]([C@@H](C)O)NC(=O)c2csc(n2)-c2cc(O)c(-c3nc(C(=O)N[C@@H](C)C(=O)NCCOCCOCCOCCOCCOCCOC4O[C@H](CO)[C@@H](O)[C@H](O)[C@H]4O)cs3)nc2-c2csc(n2)[C@@H]2COC(=O)c3c4c5c(cccc5n3O)COC(=O)[C@@H](O[C@H]3C[C@](C)(O)[C@H](N(C)C)[C@H](C)O3)[C@@H](OC4)[C@H](NC(=O)c3csc1n3)c1nc(cs1)C(=O)N2 (stereo partly specified)	Streptococcus pneumoniae	1
CO/C(C)=C1/NC(=O)[C@H]([C@@H](C)O)NC(=O)c2csc(n2)-c2cc(O)c(-c3nc(C(=O)N[C@@H](C)C(N)=O)cs3)nc2-c2csc(n2)[C@@H]2COC(=O)c3c4c5c(cccc5n3O)COC(=O)[C@@H](O[C@H]3C[C@](C)(O)[C@H](N(C)C)[C@H](C)O3)[C@@H](OC4)[C@H](NC(=O)c3csc1n3)c1nc(cs1)C(=O)N2	Streptococcus pneumoniae	0.06

Query string: Query: MIC; subject: CO/C(C)=C1/NC(=O)[C@H]([C@@H](C)O)NC(=O)c2csc(n2)-c2cc(O)c(-c3nc(C(=O)N[C@@H](C)C(=O)N(CCO)CCO)cs3)nc2-c2csc(n2)[C@@H]2COC(=O)c3c4c5c(cccc5n3O)COC(=O)[C@@H](O[C@H]3C[C@](C)(O)[C@H](N(C)C)[C@H](C)O3)[C@@H](OC4)[C@H](NC(=O)c3csc1n3)c1nc(cs1)C(=O)N2
Result string: 0.25

Query string: Query: MIC; subject: CO/C(C)=C1/NC(=O)[C@H]([C@@H](C)O)NC(=O)c2csc(n2)-c2cc(O)c(-c3nc(C(=O)N[C@@H](C)C(=O)NC(CC(=O)O)C(=O)O)cs3)nc2-c2csc(n2)[C@@H]2COC(=O)c3c4c5c(cccc5n3O)COC(=O)[C@@H](O[C@H]3C[C@](C)(O)[C@H](N(C)C)[C@H](C)O3)[C@@H](OC4)[C@H](NC(=O)c3csc1n3)c1nc(cs1)C(=O)N2 (stereo partly specified)
Result string: 0.25

Query string: Query: MIC; subject: CO/C(C)=C1/NC(=O)[C@H]([C@@H](C)O)NC(=O)c2csc(n2)-c2cc(O)c(-c3nc(C(=O)N[C@@H](C)C(=O)NCCc4cc(O)cc(O)c4)cs3)nc2-c2csc(n2)[C@@H]2COC(=O)c3c4c5c(cccc5n3O)COC(=O)[C@@H](O[C@H]3C[C@](C)(O)[C@H](N(C)C)[C@H](C)O3)[C@@H](OC4)[C@H](NC(=O)c3csc1n3)c1nc(cs1)C(=O)N2
Result string: 0.06

Each recorded value in this set is attributed to ChEMBL document CHEMBL1138895.
